Reference source for all entries: paper PMC11147780

Recorded measurements of Kd, one per entry
Experimental system: T1, 10E8-GT10.2 epitope scaffold (designed scaffold 10E8-GT10.2 with …, N-linked glycosylation sites added (positions not given))
T1 chain: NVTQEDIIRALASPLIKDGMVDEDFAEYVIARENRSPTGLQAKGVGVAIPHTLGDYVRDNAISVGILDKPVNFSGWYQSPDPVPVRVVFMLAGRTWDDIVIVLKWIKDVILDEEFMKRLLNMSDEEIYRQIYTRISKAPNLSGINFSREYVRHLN

Known Kd results, listed for orientation:
Binder | Kd
NHP-10E8_MPER-GT10v55_W21-12 (antibody, V domains shown) VH: EVQLVESGGGLVQPGGSLRLSCAASGFTFSSYGMHWVRQAPGKGLEWVAVIWYDGSKKYYADSVKDRFTISRDNSKNMLYLQMNNLKFEDTAVYYCARVAPDYDFWSGSYTYSGLDSWGQGVVVTVSS VL: DIQMTQSPSSLSASVGDTVTITCRASQSISSWLDWYQQKPGKAPKLLIYKASNLQSGVPSRFSGSGSGTHFTLTISSLQPEDFATYYCLQYNSSPYSFGQGTKVEIK | 842 pM
NHP-Comp_MPER-GT10v55_W21-03 (antibody, V domains shown) VH: QMQLQESGPGLVKPSETLPLTCAVSGASISSNFWSWIRQAPGMGLEWIGRIYGNGGSTDYNPSLKSRVTISIDTSKNQFSLKLSSVTAADTAVYFCASSFLFRFDVWGPGVLVTVSS VL: QSVLTQPPSASGAPGQSVTISCSGSSSNIGGNHVYWYQQLPGTAPKLLIYYSNQRPSGVPDRFSGSKSGTSASLAITGLRSEDEADYYCAAWDDSLSSYIFGAGTRLTV | 10800 pM

Now look at this entry.
stdin: Give the reported value of Kd for this record: MPER18_d21_45.2_v55_m5_D04 (antibody, V domains shown) VH: QVQLQESGPGLVKPSETLSLTCTVSGGSISSYYWSWIRQPPGKGLEWIGHIYYSGSTNYNPSLKGRVTISVDTSKNQFSLKLTSVTAADTAVYYCAREPPYYDFWSGLSMGVGAFDIWGQGTMVTVSS VL: DVLMTQTPLSLPVSLGDQASISCRSSQSIVHSNGYTYVEWYLQKPGQSPKLLIYKVSNRFSGVPDRFTGSGSGTDFTLKISRVEAADLGVYYCFQGSHVPYTFGGGTKLEIK
stdout: 714 pM
